target.entity: G1 APOL1 (Homo sapiens, UniProt O14791, I384M/S342G)
Construct: expressed in transfected cells
Sequence (O14791 28-398 S342G/I384M): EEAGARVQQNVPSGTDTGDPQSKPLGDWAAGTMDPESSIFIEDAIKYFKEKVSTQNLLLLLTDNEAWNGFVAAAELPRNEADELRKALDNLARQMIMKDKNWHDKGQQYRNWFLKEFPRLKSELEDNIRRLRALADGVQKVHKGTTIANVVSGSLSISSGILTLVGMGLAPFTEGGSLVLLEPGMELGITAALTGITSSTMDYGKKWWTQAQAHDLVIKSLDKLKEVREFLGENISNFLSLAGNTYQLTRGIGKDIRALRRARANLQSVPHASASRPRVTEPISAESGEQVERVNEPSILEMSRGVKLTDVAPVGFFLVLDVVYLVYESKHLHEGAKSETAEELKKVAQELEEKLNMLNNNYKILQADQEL
assay.name: Acute APOL1 Thallium Assay with inducible stable clones of HEK 293 cells
Type: cell-based
experimental.conditions: Table 24, Compounds 287 to 465; read-out: Thallium Assay (IC50)
value.kind: IC50

COC[C@H](C)NC(=O)O[C@H]1C[C@H](c2c(-c3ccc(F)cc3)[nH]c3c(F)cc(F)cc32)C1	> 1 µM
O=C(NCc1ccc[nH]c1=O)C1CC(Cc2c(-c3ccc(F)cc3)[nH]c3c(F)cc(F)cc23)C1 (stereo not shown)	> 1 µM
O=C(N[C@H]1CCOC1)O[C@H]1C[C@H](c2c(-c3ccc(F)cc3)[nH]c3c(F)cc(F)cc32)C1	> 1 µM
Cc1cnc(CNC(=O)O[C@H]2C[C@H](c3c(-c4ccc(F)cc4)[nH]c4c(F)cc(F)cc43)C2)o1	> 1 µM
C[C@H](CO)N(C)C(=O)NC[C@H]1C[C@H](c2c(-c3ccc(F)cc3)[nH]c3c(F)cc(F)cc32)C1	> 1 µM

Entry COCCNC(=O)CC1CC(c2c(-c3ccc(F)cc3)[nH]c3c(F)cc(F)cc23)C1 (stereo not shown) ; IC50 = > 1 µM

// recorded IC50 for `NC(=O)CNC[C@H]1C[C@H](c2c(-c3ccc(F)cc3)[nH]c3c(F)cc(F)cc32)C1` : < 0.25 µM

Looking up O=C(NCC1CCNC1=O)NC[C@H]1C[C@H](c2c(-c3ccc(F)cc3)[nH]c3c(F)cc(F)cc32)C1 (stereo partly shown) , I see its IC50 listed as > 1 µM

Measured IC50 of COC1CC1NC(=O)O[C@H]1C[C@H](c2c(-c3ccc(F)cc3)[nH]c3c(F)cc(F)cc32)C1 (stereo partly shown) : > 1 µM

Measured IC50, Cc1noc(CNC(=O)C2CC(Cc3c(-c4ccc(F)cc4)[nH]c4c(F)cc(F)cc34)C2)n1 (stereo not shown) : > 1 µM

The compound N#CC(CO)NC(=O)C1CC(Cc2c(-c3ccc(F)cc3)[nH]c3c(F)cc(F)cc23)C1 (stereo not shown) showed IC50 equal to > 1 µM

Record O=C(NC[C@H]1C[C@H](c2c(-c3ccc(F)cc3)[nH]c3c(F)cc(F)cc32)C1)NC1CC(O)C1 (stereo partly shown) , field IC50: > 1 µM

The reported IC50 of the compound O=C(NCC1(CO)CC1)C1CC(Cc2c(-c3ccc(F)cc3)[nH]c3c(F)cc(F)cc23)C1 (stereo not shown) was > 1 µM

Entry under test: `C[C@@H](O)CNC(=O)NC[C@H]1C[C@H](c2c(-c3ccc(F)cc3)[nH]c3c(F)cc(F)cc32)C1` . Its IC50 was > 1 µM

What the record says about `CC[C@H](CO)NC(=O)NC[C@H]1C[C@H](c2c(-c3ccc(F)cc3)[nH]c3c(F)cc(F)cc32)C1` : IC50 is > 1 µM

###

target.entity: G1 APOL1 (Homo sapiens, UniProt O14791, I384M/S342G)
Construct: expressed in transfected cells
assay.name: Acute APOL1 Thallium Assay with inducible stable clones of HEK 293 cells
Type: cell-based
experimental.conditions: HEK 293 T-Rex cells expressing G1 APOL1; read-out: Thallium Assay (IC50)
value.kind: IC50

O=C(NC1CC(O)C1)[C@H]1C[C@H](c2c(-c3ccc(F)cc3)[nH]c3c(F)cc(F)cc32)C1 (stereo partly drawn)	250 to 1000 nM
CC(NC(=O)[C@H]1C[C@H](c2c(-c3ccc(F)cc3)[nH]c3c(F)cc(F)cc32)C1)C(N)=O (mixture of isomers)	250 to 1000 nM
CN(C(=O)[C@H]1C[C@H](c2c(-c3ccc(F)cc3)[nH]c3c(F)cc(F)cc32)C1)C1COCC1O (stereo partly drawn)	> 1000 nM
O=C1NCC[C@H]1NC(=O)[C@H]1C[C@@H](c2c(-c3ccc(F)cc3)[nH]c3c(F)cc(F)cc32)C1	> 1000 nM
O=C([C@H]1C[C@H](c2c(-c3ccc(F)cc3)[nH]c3c(F)cc(F)cc32)C1)N1CC(n2cccn2)C1	> 1000 nM

In the following, a different compound is considered.
The reported IC50 value, G1 APOL1 (Homo sapiens, UniProt O14791, I384M/S342G), for CC1(NC(=O)[C@H]2C[C@H](c3c(-c4ccc(F)cc4)[nH]c4c(F)cc(F)cc43)C2)CCNC1=O (mixture of isomers) reads 250 to 1000 nM
